- target_or_system: human ANO6 (Homo sapiens)
- Construct: expressed in transfected cells
- experiment_summary: YFP quenching assay (ANO6 ion channel activity)
- Assay type: cell-based
- stated_conditions: test compound 1 μM, 10 μM ionomycin, read-out: Inhibition Level 1 μM
measurement_name: inhibition at 1 µM

- compound: "O=C(NC1CC1c1ccccc1)c1cccc(Nc2ccc(-c3ccccc3)nn2)c1 (stereo not drawn)"
  endpoint_result: "≥ 60%"
- compound: "O=C(NC1CCCCC1)c1cccc(Nc2ccc(-c3ccc(F)cc3)nn2)c1"
  endpoint_result: "≥ 60%"
- compound: "O=C(NC1CCOCC1)c1cccc(Nc2ccc(-c3ccccc3)nn2)c1"
  endpoint_result: "< 30%"
- compound: "Cc1ccc(CNC(=O)c2cccc(Nc3ccc(C4CCCC4)nn3)c2)o1"
  endpoint_result: "< 30%"
- compound: "O=C(NCC1CCOCC1)c1cccc(Nc2ccc(-c3ccccc3)nn2)c1"
  endpoint_result: "< 30%"
- compound: "O=C(NCc1ccco1)c1cccc(Nc2ccc(-c3ccccc3)nn2)c1"
  endpoint_result: "30 to 60%"
- compound: "Cc1ccc(CNC(=O)c2cccc(Nc3ccc(-c4ccco4)nn3)c2)o1"
  endpoint_result: "30 to 60%"
- compound: "O=C(NC1CCC1)c1cccc(Nc2ccc(-c3ccccc3)nn2)c1"
  endpoint_result: "30 to 60%"
- compound: "O=C(N[C@@H]1C[C@H]1c1ccccc1)c1cccc(Nc2ncc(-c3ccccc3)cn2)c1"
  endpoint_result: "≥ 60%"
- compound: "O=C(NCCc1ccccc1)c1cnc(Nc2ccc(-c3ccccc3)nn2)s1"
  endpoint_result: "< 30%"
- compound: "Cc1ccc(CNC(=O)c2cccc(Nc3ccc(-c4ccccn4)nn3)c2)o1"
  endpoint_result: "< 30%"
- compound: "Cc1ccc(CNC(=O)c2cccc(Nc3ccc(C4CCN(C)CC4)nn3)c2)o1"
  endpoint_result: "< 30%"
- compound: "O=C(NCc1ccccc1Cl)c1cccc(Nc2ccc(-c3ccccc3)nn2)c1"
  endpoint_result: "30 to 60%"
- compound: "CCN(CC)CCCNC(=O)c1cccc(Nc2ccc(-c3ccccc3)nn2)c1"
  endpoint_result: "< 30%"
- compound: "Cc1ccc(CNC(=O)c2cccc(Nc3ccc(-c4ccc(F)cc4)nn3)c2)o1"
  endpoint_result: "30 to 60%"
- compound: "O=C(NCCc1ccccc1)c1cccc(Nc2cnc(-c3ccccc3)cn2)c1"
  endpoint_result: "≥ 60%"
- compound: "CCN(CC)c1ccc(CNC(=O)c2cccc(Nc3ncc(-c4cccc(F)c4)cn3)c2)cc1"
  endpoint_result: "30 to 60%"
- compound: "O=C(N[C@@H]1C[C@H]1c1ccccc1)c1cccc(Nc2ncc(-c3cccc(F)c3)cn2)c1"
  endpoint_result: "≥ 60%"

----------
- target_or_system: human ANO6 (Homo sapiens)
- Construct: expressed in transfected cells
- experiment_summary: YFP quenching assay (ANO6 ion channel activity)
- Assay type: cell-based
- stated_conditions: test compound 30 μM, 10 μM ionomycin, read-out: Inhibition Level 30 μM

- compound: "CNC(=O)c1cccc(Nc2ccc(-c3ccccc3)nn2)c1"
  inhibition at 30 µM: "≥ 60%"
- compound: "CCCCNC(=O)c1cccc(Nc2ccc(-c3ccccc3)nn2)c1"
  inhibition at 30 µM: "≥ 60%"
- compound: "CCCCNC(=O)c1cccc(Nc2ccc(-c3ccc(F)cc3)nn2)c1"
  inhibition at 30 µM: "≥ 60%"
- compound: "CCCCCCCNC(=O)c1cccc(Nc2ccc(-c3ccccc3)nn2)c1"
  inhibition at 30 µM: "≥ 60%"
- compound: "Cc1ccc(CNC(=O)c2cccc(Nc3ccc(-c4ccc(Cl)c(Cl)c4)nn3)c2)o1"
  inhibition at 30 µM: "< 30%"
- compound: "COc1ccc(CNC(=O)c2cccc(Nc3ccc(-c4ccccc4)nn3)c2)c(OC)c1"
  inhibition at 30 µM: "≥ 60%"
- compound: "Cc1ccc(CNC(=O)c2cccc(Nc3ncc(-c4ccccc4)nn3)c2)o1"
  inhibition at 30 µM: "30 to 60%"
- compound: "COc1cccc(C(C)NC(=O)c2cccc(Nc3ccc(-c4ccccc4)nn3)c2)c1 (stereo not drawn)"
  inhibition at 30 µM: "≥ 60%"
- compound: "O=C(NCC1CCOCC1)c1cccc(Nc2ccc(-c3ccccc3)nn2)c1"
  inhibition at 30 µM: "≥ 60%"

----------
- target_or_system: human ANO6 (Homo sapiens, UniProt Q4KMQ2)
- Construct: expressed in transfected cells
- experiment_summary: YFP quenching assay (ANO6 ion channel activity)
- Format: cell-based
- stated_conditions: test compound 30 μM, 10 μM ionomycin, read-out: Inhibition Level 30 μM

- compound: "Cc1cnnc(Nc2cccc(C(=O)NCc3ccc(C)o3)c2)c1"
  target_or_system: "human ANO6 (Homo sapiens, UniProt Q4KMQ2)"
  inhibition at 30 µM: "< 30%"
- compound: "COc1ccccc1NC(=O)c1cccc(Nc2ccc(-c3ccccc3)nn2)c1"
  target_or_system: "human ANO6 (Homo sapiens, UniProt Q4KMQ2)"
  inhibition at 30 µM: "30 to 60%"
- compound: "Cc1ccc(CNC(=O)c2cccc(Nc3ccc(-c4cccc(F)c4)nn3)c2)cc1"
  target_or_system: "human ANO6 (Homo sapiens, UniProt Q4KMQ2)"
  inhibition at 30 µM: "≥ 60%"
- compound: "CC(C)NC(=O)c1cccc(Nc2ccc(-c3ccccc3)nn2)c1"
  target_or_system: "human ANO6 (Homo sapiens, UniProt Q4KMQ2)"
  inhibition at 30 µM: "≥ 60%"
- compound: "Cc1ccc(-c2ccc(Nc3cccc(C(=O)NCc4ccc(Br)cc4)c3)nn2)cc1"
  target_or_system: "human ANO6 (Homo sapiens, UniProt Q4KMQ2)"
  inhibition at 30 µM: "< 30%"
- compound: "Cc1ccc(C(C)NC(=O)c2cccc(Nc3ccc(-c4ccccc4)nn3)c2)cc1 (stereo not drawn)"
  target_or_system: "human ANO6 (Homo sapiens, UniProt Q4KMQ2)"
  inhibition at 30 µM: "≥ 60%"
- compound: "Cc1cccc(-c2cnc(Nc3cccc(C(=O)NCc4ccc(C)o4)c3)nc2)c1"
  target_or_system: "human ANO6 (Homo sapiens, UniProt Q4KMQ2)"
  inhibition at 30 µM: "30 to 60%"
- compound: "O=C(NCc1ccc(Cl)c(Cl)c1)c1cccc(Nc2ccc(-c3ccccc3)nn2)c1"
  target_or_system: "human ANO6 (Homo sapiens, UniProt Q4KMQ2)"
  inhibition at 30 µM: "≥ 60%"
- compound: "Cc1ccc(-c2ccc(Nc3cccc(C(=O)NC(C)C)c3)nn2)cc1"
  target_or_system: "human ANO6 (Homo sapiens, UniProt Q4KMQ2)"
  inhibition at 30 µM: "≥ 60%"
- compound: "O=C(Nc1cccc(F)c1)c1cccc(Nc2ccc(-c3ccccc3)nn2)c1"
  target_or_system: "human ANO6 (Homo sapiens, UniProt Q4KMQ2)"
  inhibition at 30 µM: "≥ 60%"
- compound: "Cc1ccccc1CNC(=O)c1cccc(Nc2ccc(-c3ccc(F)cc3)nn2)c1"
  target_or_system: "human ANO6 (Homo sapiens, UniProt Q4KMQ2)"
  inhibition at 30 µM: "≥ 60%"
- compound: "Cc1cccc(CNC(=O)c2cccc(Nc3ccc(-c4ccccc4)nn3)c2)c1"
  target_or_system: "human ANO6 (Homo sapiens, UniProt Q4KMQ2)"
  inhibition at 30 µM: "≥ 60%"
- compound: "O=C(NCc1ccc(Br)cc1)c1cccc(Nc2ccc(-c3ccc(F)cc3)nn2)c1"
  target_or_system: "human ANO6 (Homo sapiens, UniProt Q4KMQ2)"
  inhibition at 30 µM: "≥ 60%"
- compound: "CC(C)CNC(=O)c1cccc(Nc2ccc(-c3ccc(F)cc3)nn2)c1"
  target_or_system: "human ANO6 (Homo sapiens, UniProt Q4KMQ2)"
  inhibition at 30 µM: "≥ 60%"
- compound: "Cc1ccc(CNC(=O)c2cccc(Nc3ccc(-c4ccccc4)cc3)c2)o1"
  target_or_system: "human ANO6 (Homo sapiens, UniProt Q4KMQ2)"
  inhibition at 30 µM: "≥ 60%"
- compound: "CC(C)c1ccc(CNC(=O)c2cccc(Nc3ccc(-c4ccccc4)nn3)c2)cc1"
  target_or_system: "human ANO6 (Homo sapiens, UniProt Q4KMQ2)"
  inhibition at 30 µM: "≥ 60%"
- compound: "CCOc1ccc(CNC(=O)c2cccc(Nc3ccc(-c4ccccc4)nn3)c2)cc1OCC"
  target_or_system: "human ANO6 (Homo sapiens, UniProt Q4KMQ2)"
  inhibition at 30 µM: "≥ 60%"
- compound: "CC(C)(C)CNC(=O)c1cccc(Nc2ccc(-c3ccccc3)nn2)c1"
  target_or_system: "human ANO6 (Homo sapiens, UniProt Q4KMQ2)"
  inhibition at 30 µM: "≥ 60%"

----------
- target_or_system: human ANO6 (Homo sapiens, UniProt Q4KMQ2)
- Construct: expressed in transfected cells
- Sequence (Q4KMQ2 1-931 isoform Q4KMQ2-2): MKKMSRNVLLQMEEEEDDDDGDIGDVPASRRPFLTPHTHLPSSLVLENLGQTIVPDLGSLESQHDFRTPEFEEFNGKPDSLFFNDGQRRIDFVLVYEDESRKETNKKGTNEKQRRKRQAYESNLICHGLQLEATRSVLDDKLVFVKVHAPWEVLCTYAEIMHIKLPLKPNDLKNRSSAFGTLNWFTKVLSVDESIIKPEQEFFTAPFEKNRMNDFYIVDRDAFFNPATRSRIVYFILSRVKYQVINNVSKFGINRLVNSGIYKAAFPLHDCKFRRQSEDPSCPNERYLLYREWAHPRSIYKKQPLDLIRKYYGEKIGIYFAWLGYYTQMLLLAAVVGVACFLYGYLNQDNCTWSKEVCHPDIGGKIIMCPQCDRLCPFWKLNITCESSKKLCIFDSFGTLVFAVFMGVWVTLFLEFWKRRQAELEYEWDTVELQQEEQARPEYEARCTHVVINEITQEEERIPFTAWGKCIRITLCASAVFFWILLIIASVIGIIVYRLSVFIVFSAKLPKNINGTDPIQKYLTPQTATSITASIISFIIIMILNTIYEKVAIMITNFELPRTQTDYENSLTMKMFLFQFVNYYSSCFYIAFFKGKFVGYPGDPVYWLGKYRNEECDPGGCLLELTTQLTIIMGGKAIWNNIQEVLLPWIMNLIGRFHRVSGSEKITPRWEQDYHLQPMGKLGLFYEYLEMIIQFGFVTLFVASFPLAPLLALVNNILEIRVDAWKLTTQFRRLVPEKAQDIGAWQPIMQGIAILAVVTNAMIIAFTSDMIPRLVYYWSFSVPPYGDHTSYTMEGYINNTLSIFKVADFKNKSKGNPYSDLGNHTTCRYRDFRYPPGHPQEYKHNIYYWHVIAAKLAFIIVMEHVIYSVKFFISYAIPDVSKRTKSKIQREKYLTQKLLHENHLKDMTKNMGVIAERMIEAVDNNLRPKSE
- experiment_summary: LACT C2 assay (phosphatidylserine scramblase function assay)
- Assay type: cell-based
- stated_conditions: test compound 1 μM, FRT cells expressing human ANO6, 10 μM ionomycin, read-out: Inhibition Level 1 μM
Known inhibition at 1 µM of a selection of compounds

- input_smiles: "CC(C)(C)CNC(=O)c1cccc(Nc2ccc(-c3ccccc3)nn2)c1"
  inhibition at 1 µM: "< 30%"
- input_smiles: "Cc1ccc(CNC(=O)c2cccc(Nc3ncc(-c4ccccc4C(F)(F)F)cn3)c2)o1"
  inhibition at 1 µM: "30 to 60%"
- input_smiles: "CC(C)CNC(=O)c1cccc(Nc2ccc(-c3ccccc3)nn2)c1"
  inhibition at 1 µM: "< 30%"
- input_smiles: "O=C(Nc1nccs1)c1cccc(Nc2ncc(-c3cccc(F)c3)cn2)c1"
  inhibition at 1 µM: "≥ 60%"
- input_smiles: "CCN(CCNC(=O)c1cccc(Nc2ccc(-c3ccccc3)nn2)c1)Cc1ccccc1"
  inhibition at 1 µM: "30 to 60%"
- input_smiles: "O=C(N[C@@H]1C[C@H]1c1ccccc1)c1cccc(Nc2ccc(-c3cccnc3)cc2)c1"
  inhibition at 1 µM: "≥ 60%"
- input_smiles: "Cc1ccc(CNC(=O)c2cccc(Nc3cnc(-c4ccccc4)cn3)c2)o1"
  inhibition at 1 µM: "≥ 60%"
- input_smiles: "O=C(NCCc1cccc(C(F)(F)F)c1)c1cccc(Nc2ncc(-c3cccc(F)c3)cn2)c1"
  inhibition at 1 µM: "≥ 60%"

All figures here come from patent US20230080054A1.
